Please provide measured Emax for the entries that follow.
tested.system: human PPARγ ligand binding domain fused to GAL4 DNA binding domain (Homo sapiens)
Construct: human PPARγ (including amino acids residue 204-505); expressed in transfected cells; host or cells: COS-1 cells
Sequence (P37231 204-505): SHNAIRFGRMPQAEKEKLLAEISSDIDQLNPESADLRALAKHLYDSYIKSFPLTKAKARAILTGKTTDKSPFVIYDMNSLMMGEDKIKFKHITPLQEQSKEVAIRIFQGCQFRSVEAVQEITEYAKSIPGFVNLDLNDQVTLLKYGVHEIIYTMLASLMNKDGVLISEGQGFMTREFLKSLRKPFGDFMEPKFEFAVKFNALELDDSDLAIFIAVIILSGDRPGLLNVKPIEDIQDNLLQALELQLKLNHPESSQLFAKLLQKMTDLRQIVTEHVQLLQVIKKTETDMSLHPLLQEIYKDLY
experimental.details: GAL4-PPARγ luciferase reporter assay in COS-1 cells
Assay type: cell-based
experimental.parameters: maximum PPARγ-agonistic activity per the maximum PPARγ-agonistic activity (100%) of pioglitazone

State recorded Emax with human PPARγ ligand binding domain fused to GAL4 DNA binding domain (Homo sapiens), entry Cc1ccc(C(=O)c2c(C)n(Cc3cccc(CO[C@H](C)C(=O)O)c3)c3ncccc23)cc1 [Compound 59] , no comment. 41%

# return Emax of COc1ccc2c(C(=O)c3ccc(C)cc3)c(C)n(Cc3ccc(/C=C/COC(C)(C)C(=O)O)cc3)c2c1 [Compound 81] (system: human PPARγ ligand binding domain fused to GAL4 DNA binding domain (Homo sapiens)) 42%

Please tell me the measured Emax for COc1ccc2c(C(=O)c3ccc(C)cc3)c(C)n(Cc3cccc(CO[C@H](C)C(=O)O)c3)c2c1 [Compound 54] ; system: human PPARγ ligand binding domain fused to GAL4 DNA binding domain (Homo sapiens). 39%

Give measured Emax for Cc1ccc(C(=O)c2cccn2C/C=C\c2ccc(COC(C)(C)C(=O)O)cc2)cc1 [Compound 1] (human PPARγ ligand binding domain fused to GAL4 DNA binding domain (Homo sapiens)). 51%

Identify measured Emax obtained with human PPARγ ligand binding domain fused to GAL4 DNA binding domain (Homo sapiens) for Cc1ccc(C(=O)c2nn(C/C=C/c3ccc(COC(C)(C)C(=O)O)cc3)c3ccccc23)cc1 [Compound 35] . 57%

Recall the reported Emax of Cc1ccc(C(=O)c2ccn(C/C=C/c3ccc(CO[C@H](C)C(=O)O)cc3)n2)cc1 [Compound 21] on human PPARγ ligand binding domain fused to GAL4 DNA binding domain (Homo sapiens) and write it down. 71%

Report its Emax with human PPARγ ligand binding domain fused to GAL4 DNA binding domain (Homo sapiens) as the test system: Cc1ccc(C(=O)c2c(C)n(Cc3ccc(/C=C/COC(C)(C)C(=O)O)cc3)c3ccccc23)cc1 [Compound 79] 35%

Please report the measured Emax for COc1ccc2c(C(=O)c3ccc(C)cc3)c(C)n(Cc3ccc(CO[C@H](C)C(=O)O)cc3)c2c1 [Compound 46] tested on human PPARγ ligand binding domain fused to GAL4 DNA binding domain (Homo sapiens). 26%

Under human PPARγ ligand binding domain fused to GAL4 DNA binding domain (Homo sapiens), report Emax for Cc1ccc(C(=O)c2cccn2Cc2ccc(/C=C/CO[C@H](C)C(=O)O)cc2)cc1 [Compound 68] 71%

Fill in Emax for Cc1ccc(C(=O)c2c(C)n(C/C=C/c3ccc(COC(C)(C)C(=O)O)cc3)c3ncccc23)cc1 [Compound 20] tested with human PPARγ ligand binding domain fused to GAL4 DNA binding domain (Homo sapiens). 68%

Fill: Emax (human PPARγ ligand binding domain fused to GAL4 DNA binding domain (Homo sapiens)) for this compound Cc1ccc(C(=O)c2c(C)c3ccc(C(F)(F)F)cc3n2Cc2ccc(/C=C/COC(C)(C)C(=O)O)cc2)cc1 [Compound 83] 13%

Report measured Emax on human PPARγ ligand binding domain fused to GAL4 DNA binding domain (Homo sapiens); entry: Cc1ccc(C(=O)c2c(C)n(-c3ccc(COC4(C(=O)O)CCC4)cc3)c3ccccc23)cc1 [Example 86] 20%
